Values compiled from PubChem BioAssay (NCI).

tested on: SF-268 CNS; assay: NCI tumour cell line growth inhibition, 48 h
measurementKind: GI50

entrySmiles	targetSystem	measurementKind	readoutValue
O=C(Nc1cccc(Oc2nnc(Cl)c3ccccc23)c1)Nc1ccc(Cl)c(C(F)(F)F)c1	SF-268 CNS	GI50	0.793 µM
COc1cc2nccc(Oc3ccc(NC(=O)C4(C(=O)Nc5ccc(F)cc5)CC4)cc3)c2cc1Oc1ccc(N)cn1	SF-268 CNS	GI50	3.11 µM
COc1ccc(-c2nn(-c3cccc(NC(=O)c4ccc5c(c4)OCCO5)c3)cc2-c2ccncc2)cc1Cl	SF-268 CNS	GI50	3.75 µM

Looking up "O=C(CCCN1CCOCC1)Nc1ccc(Cn2nnc3c2C(=O)c2nnn(Cc4ccc(NC(=O)CCCN5CCOCC5)cc4)c2C3=O)cc1" , I found its GI50 recorded as 3.21 µM
